Sourced from patent US8633219B2

The following compounds are listed with their measured Antagonism Volume, Result 2 values.
system: HIV-1IIIB; experiment: Drug combination anti-HIV-1 cytoprotection assay (MacSynergy II) in CEM-SS cells infected with HIV-1IIIB; format: cell-based; details: in combination with Compound A, 95% confidence interval, assay 2
Readout label: Antagonism Volume, Result 2 (μM^2%)

{"Compound": "C[C@H](Cn1cnc2c(N)ncnc21)OCP(=O)(O)O [PMPA, tenofovir]", "Unit descriptor": "μM^2%", "Test result": "−4"}
{"Compound": "Cc1cn([C@H]2C[C@H](N=[N+]=[N-])[C@@H](CO)O2)c(=O)[nH]c1=O [AZT, zidovudine]", "Unit descriptor": "μM^2%", "Test result": "−44"}
{"Compound": "CC(C)(C)NC(=O)[C@@H]1CN(Cc2cccnc2)CCN1C[C@@H](O)C[C@@H](Cc1ccccc1)C(=O)N[C@H]1c2ccccc2C[C@H]1O [IDV, indinavir]", "Unit descriptor": "μM^2%", "Test result": "−23"}
{"Compound": "O=C1Nc2ccc(Cl)cc2[C@@](C#CC2CC2)(C(F)(F)F)O1 [EFV, efavirenz]", "Unit descriptor": "μM^2%", "Test result": 0}
{"Compound": "Cc1c(O)cccc1C(=O)N[C@@H](CSc1ccccc1)[C@H](O)CN1C[C@H]2CCCC[C@H]2C[C@H]1C(=O)NC(C)(C)C [NFV, nelfinavir]", "Unit descriptor": "μM^2%", "Test result": "−3"}
